Quick reference for Mean IC50 (nM), cAMP antagonist assay among some binders
- Assayed system: human cannabinoid receptor 1 (huCB1), full length, expressed on cells (human, UniProt P21554 1-472)
- Sequence (P21554 whole entry): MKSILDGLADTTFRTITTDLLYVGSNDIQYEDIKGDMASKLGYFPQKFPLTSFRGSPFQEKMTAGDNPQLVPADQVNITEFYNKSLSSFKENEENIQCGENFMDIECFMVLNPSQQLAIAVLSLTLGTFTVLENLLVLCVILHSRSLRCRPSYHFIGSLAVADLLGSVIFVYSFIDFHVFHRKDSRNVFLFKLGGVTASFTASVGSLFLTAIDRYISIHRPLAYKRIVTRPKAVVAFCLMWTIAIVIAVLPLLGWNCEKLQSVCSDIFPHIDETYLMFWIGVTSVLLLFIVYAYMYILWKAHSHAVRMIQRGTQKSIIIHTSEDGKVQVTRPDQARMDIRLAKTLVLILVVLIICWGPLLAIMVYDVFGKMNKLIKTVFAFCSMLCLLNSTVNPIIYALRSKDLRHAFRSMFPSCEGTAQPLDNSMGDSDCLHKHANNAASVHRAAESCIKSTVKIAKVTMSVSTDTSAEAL
- Test name: cell-based or functional assay
Please give a number only; it is taken to be in nM.

>>> numeric_readout("LIBC523661-1 (antibody, V domains shown, Expressed as IgG1 SEFL2 mAb) VH: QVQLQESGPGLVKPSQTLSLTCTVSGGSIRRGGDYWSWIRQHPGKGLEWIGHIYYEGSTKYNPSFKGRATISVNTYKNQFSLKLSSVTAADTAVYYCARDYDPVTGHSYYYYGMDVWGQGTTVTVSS VL: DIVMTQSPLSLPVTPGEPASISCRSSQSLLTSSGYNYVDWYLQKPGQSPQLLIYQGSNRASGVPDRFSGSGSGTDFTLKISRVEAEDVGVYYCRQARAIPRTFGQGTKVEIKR")
3.3
>>> numeric_readout("LIBC528131-1 (antibody, V domains shown) VH: QVQLQESGPGLVKPSQTLSLTCTVSGGSIRRGGDYWSWIRQHPGKGLEWIGHIYQTGQTAYNPNLEGRATISVNTYKNQFSLKLSSVTAADTAVYYCARDYDILTGYSYYYYGMDVWGQGTTVTVSS VL: EIVLTQSPATLSLSPGERATLSCRASQSVSSYLGWYQQKPGQAPRLLIYGASSRATGIPDRFSGSGSGTDFTLTISRLEPEDFAVYYCQQYGSSPRTFGQGTKVEIKR")
4.23

Next, consider the following binder.
# return recorded Mean IC50 (nM), cAMP antagonist assay for input LIBC527879-1 (antibody, V domains shown) VH: QVQLQESGPGLVKPSQTLSLTCTVSGGSIRRGGDYWGWIRQHPGKGLEWIGHIYQSGSTNYNPKLKSRATISVDTYKNQFSLKLSSVTAADTAVYYCARDYDIFTGYSYYYYGMDVWGQGTTVTVSS VL: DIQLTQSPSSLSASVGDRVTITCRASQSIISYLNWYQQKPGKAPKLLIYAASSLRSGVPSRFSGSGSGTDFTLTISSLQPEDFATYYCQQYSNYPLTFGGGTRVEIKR
3.95
